# maps each entry to its Emax
Test system: late erythroid cells (Eryth II)
Experiment: MLTA, ErythII: concentration-response and QSP model fit
Format: cell-based, human
Settings: Homo sapiens, 144 h; parameter from QSP model fitting; read-out: Emax_drug_ErythroidII
Protocol: A custom optimized cytokine cocktail was developed using commercially available cytokines (Peprotech, New Jersey) to facilitate simultaneous multi-lineage differentiation and self-renewal of freeze-thawed primary human bone marrow-derived CD34+ cells in SFEM II media (cells and media from StemCell Technologies, Vancouver). […] Donor material was collected and cultured as described above. […] Following treatment, cell populations were measured using flow cytometry. […]
endpoint: Emax

| molecule | measuredResult |
| --- | --- |
| Cc1sc2c(c1C)C(c1ccc(Cl)cc1)=N[C@@H](CC(=O)Nc1ccc(O)cc1)c1nnc(C)n1-2 | 12% |
| Nc1cccc2c1CN(C1CCC(=O)NC1=O)C2=O (stereo not drawn) [Lenalidomide] | 1.48e-06% |
| Nc1ccn([C@@H]2O[C@H](CO)[C@@H](O)[C@@H]2O)c(=O)n1 | 2.92% |
| CC(C)C[C@H](NC(=O)[C@H](Cc1ccccc1)NC(=O)c1cnccn1)B(O)O | 19.1% |
| CS(=O)(=O)N1CCN(Cc2cc3nc(-c4cccc5[nH]ncc45)nc(N4CCOCC4)c3s2)CC1 | 13.6% |
| CC(=O)O[C@@]12CO[C@@H]1C[C@H](O)[C@@]1(C)C(=O)[C@H](O)C3=C(C)[C@@H](OC(=O)[C@H](O)[C@@H](NC(=O)OC(C)(C)C)c4ccccc4)C[C@@](O)([C@@H](OC(=O)c4ccccc4)[C@H]21)C3(C)C | 1.59% |
| CC(=O)c1c(C)c2cnc(Nc3ccc(N4CCNCC4)cn3)nc2n(C2CCCC2)c1=O | 11.8% |
| CCN1CCN(Cc2ccc(Nc3ncc(F)c(-c4cc(F)c5nc(C)n(C(C)C)c5c4)n3)nc2)CC1 | 3.33% |
| CCc1cnn2c(NCc3ccc[n+]([O-])c3)cc(N3CCCC[C@H]3CCO)nc12 | 7.1% |
| CN(C)C(=O)c1cc2cnc(Nc3ccc(N4CCNCC4)cn3)nc2n1C1CCCC1 | 10.8% |
| CC(=O)O[C@H]1C(=O)[C@@]2(C)[C@H]([C@H](OC(=O)c3ccccc3)[C@]3(O)C[C@H](OC(=O)[C@H](O)[C@@H](NC(=O)c4ccccc4)c4ccccc4)C(C)=C1C3(C)C)[C@]1(OC(C)=O)CO[C@@H]1C[C@@H]2O | 7.1% |
| O=C1CCC(N2C(=O)c3ccccc3C2=O)C(=O)N1 (stereo not drawn) [thalidomide] | 0.00351% |
